- method.notes: Solubility by forward light-scatter (NEPHELOstar Plus)
- Format: physicochemical
- run.parameters: DPBS with 1% DMSO, aqueous buffer, kinetic from dmso stock, 1% DMSO in DPBS pH 7.1, 37 °C
reported.property: solubility at 2 h

## Task Output solubility at 2 h of CC1(C)C2CCC1(C)C(OCC(O)CNC1CCCCC1)C2 (stereo not shown)
## Result > 100 µM
